Measured values drawn from ChEMBL document CHEMBL3797052 for this set.

Test system: K562
Experiment: Antiproliferative activity against human K562 cells assessed as growth inhibition after 48 hrs by sulforhodamine B assay
Format: functional
Settings: K562, 48 h
Below is a list of entries, each paired with its recorded TGI value.
measured quantity: TGI

substance smiles	measured quantity	observed
CNC(=O)c1cc(Oc2ccc3nc(NC(=O)c4cc(C(F)(F)F)cc(C(F)(F)F)c4)sc3c2)ccn1	TGI	> 100 µM
CNC(=O)c1cc(Oc2ccc3nc(NC(=O)Nc4ccc(Cl)c(Cl)c4)sc3c2)ccn1	TGI	> 100 µM
CNC(=O)c1cc(Oc2ccc3nc(NC(=O)Nc4ccc(Cl)c(C(F)(F)F)c4)sc3c2)ccn1	TGI	> 100 µM

###

Test system: MDA-MB-468
Experiment: Antiproliferative activity against human MDA-MB-468 cells assessed as growth inhibition after 48 hrs by sulforhodamine B assay
Assay type: functional
Details: MDA-MB-468, 48 h, read-out: LC50 (the source's name)

substance smiles	CC50
CNC(=O)c1cc(Oc2ccc3nc(NC(=O)Nc4ccc(Cl)c(C(F)(F)F)c4)sc3c2)ccn1	> 100 µM
CNC(=O)c1cc(Oc2ccc3nc(NC(=O)Nc4ccc(Cl)c(Cl)c4)sc3c2)ccn1	> 100 µM
CNC(=O)c1cc(Oc2ccc3nc(NC(=O)c4cc(C(F)(F)F)cc(C(F)(F)F)c4)sc3c2)ccn1	> 100 µM

###

Below is a list of entries, each paired with its recorded CC50 value.
Test: Antiproliferative activity against human SF295 cells assessed as growth inhibition after 48 hrs by sulforhodamine B assay
Assay type: functional
Settings: SF-295, 48 h, read-out: LC50 (the source's name)

molecule	CC50
CNC(=O)c1cc(Oc2ccc3nc(NC(=O)Nc4ccc(Cl)c(C(F)(F)F)c4)sc3c2)ccn1	7.66 µM
CNC(=O)c1cc(Oc2ccc3nc(NC(=O)Nc4ccc(Cl)c(Cl)c4)sc3c2)ccn1	6.41 µM
CNC(=O)c1cc(Oc2ccc3nc(NC(=O)Nc4cc(C(F)(F)F)cc(C(F)(F)F)c4)sc3c2)ccn1	5.38 µM
CNC(=O)c1cc(Oc2ccc(NC(=O)Nc3ccc(Cl)c(C(F)(F)F)c3)cc2)ccn1 [SORAFENIB]	31.6 µM

###

System: M14
Experiment: Antiproliferative activity against human M14 cells assessed as growth inhibition after 48 hrs by sulforhodamine B assay
Assay type: functional
Settings: M14, 48 h, read-out: LC50 (the source's name)
measured quantity: CC50

substance smiles	measured quantity	observed
CNC(=O)c1cc(Oc2ccc3nc(NC(=O)Nc4ccc(Cl)c(Cl)c4)sc3c2)ccn1	CC50	> 100 µM
CNC(=O)c1cc(Oc2ccc3nc(NC(=O)c4cc(C(F)(F)F)cc(C(F)(F)F)c4)sc3c2)ccn1	CC50	> 100 µM
CNC(=O)c1cc(Oc2ccc3nc(NC(=O)Nc4ccc(Cl)c(C(F)(F)F)c4)sc3c2)ccn1	CC50	> 100 µM

###

Assay: Antiproliferative activity against human NCI-ADR-RES cells assessed as cell growth at 10^-5 M after 48 hrs by sulforhodamine B assay
Assay type: functional
Settings: read-out: Activity
measured quantity: growth at 10 µM (%)

substance smiles	measured quantity	units text	observed
CNC(=O)c1cc(Oc2ccc3nc(NC(=O)Nc4ccc(F)cc4F)sc3c2)ccn1	growth at 10 µM	%	45.5
CNC(=O)c1cc(Oc2ccc3nc(NC(=O)c4cc(C(F)(F)F)cc(C(F)(F)F)c4)sc3c2)ccn1	growth at 10 µM	%	15
CNC(=O)c1cc(Oc2ccc3nc(NC(=O)Nc4ccc(Cl)cc4)sc3c2)ccn1	growth at 10 µM	%	83.6
